Entries annotated with measured TGI
system: SN12C renal; experiment: NCI tumour cell line growth inhibition, 384-well format
measure: TGI (nM)

molecule	reading unit	result number
CN[C@H]1CN(c2ccc3c(=O)c(C(=O)O)cn(-c4nccs4)c3n2)C[C@@H]1OC	nM	2770
CCOC(=O)C1=CCCC[C@H]1S(=O)(=O)Nc1ccc(F)cc1Cl	nM	48400
COc1cc2c(cc1OC(C)C)[C@H](c1ccc(Cl)cc1)N(c1ccc(N(C)CC3CCC(N4CCN(C)C(=O)C4)CC3)cc1)C(=O)C2 (some centres undefined)	nM	3220
NS(=O)(=O)OC[C@H]1C[C@@H](Nc2ccnc3cc(-c4cccc(SC(F)(F)F)c4)nn23)[C@H](O)[C@@H]1O	nM	43.7

###

TGI listing for selected molecules.
tested on: OVCAR-4 ovarian; assay: NCI tumour cell line growth inhibition, 384-well format
measure: TGI (µM)

molecule	measure	reading unit	value comparator	result number
CN[C@H]1CN(c2ccc3c(=O)c(C(=O)O)cn(-c4nccs4)c3n2)C[C@@H]1OC	TGI	µM	>	100
Cc1cc2c(C(=O)NC[C@H](C)c3ccccc3)c(O)c(O)cc2c(O)c1-c1c(C)cc2c(C(=O)NC[C@H](C)c3ccccc3)c(O)c(O)cc2c1O	TGI	µM	=	4.46
COc1cc2c(cc1OC(C)C)[C@H](c1ccc(Cl)cc1)N(c1ccc(N(C)CC3CCC(N4CCN(C)C(=O)C4)CC3)cc1)C(=O)C2 (some centres undefined)	TGI	µM	=	3.18
CNC(=O)c1c(C)oc2cc(Oc3ncnc4cc(OC)c(OC)cc34)ccc12	TGI	µM	>	100

###

system: T-47D breast; test: NCI tumour cell line growth inhibition, 384-well format

compound	value comparator	TGI [nM]
COc1cc2c(cc1OC(C)C)[C@H](c1ccc(Cl)cc1)N(c1ccc(N(C)CC3CCC(N4CCN(C)C(=O)C4)CC3)cc1)C(=O)C2 (some centres undefined)	=	3230
Cc1c(C)n(CCCN2CCN(C)CC2)c2ccc(Oc3cccc(C(=O)N4CCN(CCc5ccc(F)cc5)CC4)c3)cc12	=	2820
Cc1cc2c(C(=O)NC[C@H](C)c3ccccc3)c(O)c(O)cc2c(O)c1-c1c(C)cc2c(C(=O)NC[C@H](C)c3ccccc3)c(O)c(O)cc2c1O	=	1590
CNC(=O)c1ccc(N2C(=S)N(c3cnc(C#N)c(C(F)(F)F)c3)C(=O)C23CCC3)cc1F	>	100000

###

system: CAKI-1 renal; assay: NCI tumour cell line growth inhibition, 384-well format

structure as smiles	value comparator	TGI [nM]
NS(=O)(=O)OC[C@H]1C[C@@H](Nc2ccnc3cc(-c4cccc(SC(F)(F)F)c4)nn23)[C@H](O)[C@@H]1O	=	36
CN[C@H]1CN(c2ccc3c(=O)c(C(=O)O)cn(-c4nccs4)c3n2)C[C@@H]1OC	=	6440
Cc1c(C)n(CCCN2CCN(C)CC2)c2ccc(Oc3cccc(C(=O)N4CCN(CCc5ccc(F)cc5)CC4)c3)cc12	=	2850
CNC(=O)c1ccc(N2C(=S)N(c3cnc(C#N)c(C(F)(F)F)c3)C(=O)C23CCC3)cc1F	>	100000

###

test system: KM12 colon; experiment: NCI tumour cell line growth inhibition, 384-well format; in the data active means GI50 below about 0.43 µM; inactive means the rest
Labels: 1 for active, -1 for inactive

structure as smiles	category
CNC(=O)c1ccc(N2C(=S)N(c3cnc(C#N)c(C(F)(F)F)c3)C(=O)C23CCC3)cc1F	-1
NS(=O)(=O)OC[C@H]1C[C@@H](Nc2ccnc3cc(-c4cccc(SC(F)(F)F)c4)nn23)[C@H](O)[C@@H]1O	1
CNC(=O)c1c(C)oc2cc(Oc3ncnc4cc(OC)c(OC)cc34)ccc12	-1
CN[C@H]1CN(c2ccc3c(=O)c(C(=O)O)cn(-c4nccs4)c3n2)C[C@@H]1OC	-1
CC(C)C[C@H](NC(=O)CNC(=O)c1cc(Cl)ccc1Cl)B(O)O	1
